Biological target: SPIN1 triple tudor domain
Sequence (chain, as listed by the source): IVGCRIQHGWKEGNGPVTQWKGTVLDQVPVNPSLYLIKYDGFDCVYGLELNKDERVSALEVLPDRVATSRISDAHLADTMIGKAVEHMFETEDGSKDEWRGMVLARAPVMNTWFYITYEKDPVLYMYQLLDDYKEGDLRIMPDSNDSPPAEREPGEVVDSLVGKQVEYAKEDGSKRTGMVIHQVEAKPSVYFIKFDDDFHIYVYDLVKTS
pIC50: −log10 of the molar value. Bridge positions count the residues as written; N and C are the ends. Ends that are not written are not given here.

>  <binder>
{CH2CO}-YYLTHPYPSVFRTC (thioether N-14) [OC9, de novo cyclic peptide from mRNA display]

>  <pIC50>
< 5.70

$$$$
